Assay: Ocular tissue concentrations (aqueous humor, vitreous humor, iris, retina, choroid, cornea) after topical ocular, subcutaneous and intravitreal administration
Assay type: in vivo, New Zealand White rabbits
Settings: New Zealand White, rabbit, iris homogenate, other: intravitreal, 2.5 mg/eye, Iris homogenate, 6.0 hr, right eye, intravitreal 2.5 mg/eye (group 5), individual animals; read-out: Conc. (ng/mL) OD
value-type: concentration at 6 h (ng/mL)
Express the result in ng/mL but write the number alone.

IN: Given the compound COC(=O)N[C@@H](Cc1ccccc1)C(=O)N[C@@H](Cc1ccc(NS(=O)(=O)O)cc1)c1csc(-c2cccs2)n1 [Compound 1] , what is its reported concentration at 6 h?
OUT: 18500
